system: DMS-273; assay: NCI tumour cell line growth inhibition, 48 h
Calls of active or inactive are those of the source. No stated cut-off is given here; in the data, active = GI50 up to about 1.1 µM and inactive = higher.
Can you tell me GI50 for the items I'm about to list?

INPUT: Return reported GI50. Input molecule: `CCOC(=O)c1[nH]c(CN(C)Cc2[nH]c(C(=O)OCC)c(C)c2C(=O)OCc2ccccc2)c(C(=O)OCc2ccccc2)c1C`
OUTPUT: 10 µM (inactive)

INPUT: Name the recorded GI50 of the item COC(=O)CCC1=NOC(CC2CC(CCC(=O)OC)=NO2)C1 (stereo unspecified) in your answer.
OUTPUT: > 100 µM (inactive)

INPUT: Give the reported GI50 for this molecule. `Cc1cn([C@H]2C[C@H](N=[N+]=[N-])[C@@H](CO)O2)c(=O)[nH]c1=O`
OUTPUT: > 100 µM (inactive)

INPUT: Look up and state reported GI50 for CC12CC(=O)NN=C1c1ccccc1C2 (stereo unspecified)
OUTPUT: > 100 µM (inactive)

INPUT: Fill in GI50 for record `CC(=O)NC1=C(NC(C)(C)C)C(=O)c2ccccc2C1=O`
OUTPUT: 26.1 µM (inactive)

INPUT: Complete the entry with GI50 for `C[N+]1=c2c3cccc4cccc(c(=O)n2CCC1)c43`
OUTPUT: 24.4 µM (inactive)

INPUT: Give the value of GI50 reported for the following: `Oc1cc(-n2cccn2)c(O)cc1-n1cccn1`
OUTPUT: 41.3 µM (inactive)

INPUT: Please list GI50 recorded for the molecule O=C(Cc1ccccc1)NN1C(=O)C(Cl)C1c1ccccc1O (stereo unspecified)
OUTPUT: 20.5 µM (inactive)

INPUT: Quickly give me recorded GI50 for `CC(=O)/C=C\C(=O)NNS(=O)(=O)c1ccc(C)cc1`
OUTPUT: > 100 µM (inactive)

INPUT: Please give measured GI50 of the following entry: NC(=O)c1c[se]c(C2OC(CO)C(O)C2O)n1 (stereo unspecified)
OUTPUT: 3.58 µM (inactive)

INPUT: Tell me its GI50 given `Oc1c(Cl)c2nccnc2c2ccccc12` as the entry.
OUTPUT: > 100 µM (inactive)
